- MEASURED_TARGET: T1, IFN-αF (human, UniProt P01568 24-189)
- T1 construct: Recombinant, HEK293; also called IFN-α21
- T1 chain: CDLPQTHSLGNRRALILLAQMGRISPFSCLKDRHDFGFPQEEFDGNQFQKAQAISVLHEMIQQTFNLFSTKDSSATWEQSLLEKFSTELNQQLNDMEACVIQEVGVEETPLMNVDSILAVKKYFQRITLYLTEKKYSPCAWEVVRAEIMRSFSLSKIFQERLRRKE
- METHOD_NOTES: ProteOn SPR, cell supernatant;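 note: each binding measurement used just a single antigen concentration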
Assignment: determine reported Kd for the given binders.
Numbers only, in nM.

binder="IFWM3391 (antibody, IgG1, V domains shown, mAb; IgG1/kappa said of the parent and of selected mAbs; also called IFWB3126) VH: EVQLVQSGAEVKKPGESLKISCKGSGYSFTSYWIGWVRQMPGKGLEWMGIIDPSDSDTRYSPSFQGQVTISADKSISTAYLQWSSLKASDTAMYYCARHPGLAWAPDFDYWGQGTLVTVSS VL: DIQMTQSPSSLSASVGDRVTITCRASQSINNFLNWYQQKPGKAPKLLIYFASSLQSGVPSRFSGSGSGTDFTLTISSLQPEDFATYYCQQSFNLPITFGQGTKVEIK" measure_name=Kd units_of_measure=nM reported=0.025
binder="IFWM3394 (antibody, IgG1, V domains shown, mAb; IgG1/kappa said of the parent and of selected mAbs; also called IFWB3129) VH: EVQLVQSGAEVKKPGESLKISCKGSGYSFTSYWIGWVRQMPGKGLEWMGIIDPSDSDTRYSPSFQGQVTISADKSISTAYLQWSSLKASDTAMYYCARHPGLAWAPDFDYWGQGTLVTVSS VL: DIQMTQSPSSLSASVGDRVTITCRASQSINEFLNWYQQKPGKAPKLLIYFASSLQSGVPSRFSGSGSGTDFTLTISSLQPEDFATYYCQQSYSTPLTFGQGTKVEIK" measure_name=Kd units_of_measure=nM reported=0.063
binder="IFWM3388 (antibody, IgG1, V domains shown, mAb; IgG1/kappa said of the parent and of selected mAbs; also called IFWB3123) VH: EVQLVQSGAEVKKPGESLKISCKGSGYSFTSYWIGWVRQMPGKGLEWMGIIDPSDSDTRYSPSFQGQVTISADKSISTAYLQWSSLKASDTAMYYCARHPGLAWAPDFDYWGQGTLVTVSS VL: DIQMTQSPSSLSASVGDRVTITCRASQSIGKSLNWYQQKPGKAPKLLIYFASSLQSGVPSRFSGSGSGTDFTLTISSLQPEDFATYYCQQSYDFPLTFGQGTKVEIK" measure_name=Kd units_of_measure=nM reported=0.019

Value of Kd reported for the binder IFWM3389 (antibody, IgG1, V domains shown, mAb; IgG1/kappa said of the parent and of selected mAbs; also called IFWB3124) VH: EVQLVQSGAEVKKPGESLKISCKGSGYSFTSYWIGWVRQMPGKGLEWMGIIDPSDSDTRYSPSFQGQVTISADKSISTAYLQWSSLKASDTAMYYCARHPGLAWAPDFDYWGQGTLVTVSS VL: DIQMTQSPSSLSASVGDRVTITCRASQSIDDFLNWYQQKPGKAPKLLIYFASSLQSGVPSRFSGSGSGTDFTLTISSLQPEDFATYYCQQSHTLPLTFGQGTKVEIK is 0.009
